# studySystem: Trypsin (Homo sapiens, UniProt P07477+P07478+P35030)
# assayExplanation: Inhibition of trypsin
# Assay type: protein assay
quantity: IC50 (µM)

compound: Nc1cccc(-c2c(Cl)nc(NC3CCC3)c(=O)n2CC(=O)NCCc2cnc[nH]2)c1
boundType: >
testValue: 30
--
compound: NC1=NCCSc2cc(CNC(=O)Cn3c(-c4cccc(N)c4)c(Cl)nc(NC4CCC4)c3=O)ccc21
boundType: >
testValue: 30
--
compound: Nc1cccc(-c2c(Cl)nc(NC3CCC3)c(=O)n2CC(=O)NCc2ccc3c(N)noc3c2)c1
boundType: >
testValue: 30
--
compound: N=C(N)c1ccc(CNC(=O)Cn2c(-c3cccc(N)c3)c(Cl)nc(NC3CCC3)c2=O)c(C(F)(F)F)c1
boundType: =
testValue: 0.23
--
compound: N=C(N)c1ccc(S(=O)(=O)NCCn2c(-c3cccc(N)c3)c(Cl)nc(NC3CCC3)c2=O)cc1
boundType: =
testValue: 9.1
--
compound: N=C(N)c1ccc(CNC(=O)Cn2c(-c3cccc(N)c3)c(Cl)nc(NC3CCC3)c2=O)c(F)c1
boundType: >
testValue: 30
--
compound: Nc1cccc(-c2c(Cl)nc(NC3CCC3)c(=O)n2CC(=O)NCc2ccc3c(N)nccc3c2)c1
boundType: >
testValue: 30
--
compound: N=C(N)c1ccc(CNC(=O)Cn2c(-c3cccc(N)c3)c(Cl)nc(NC3CCC3)c2=O)cc1O
boundType: =
testValue: 7.55
--
compound: Nc1cccc(-c2c(Cl)nc(NC3CCC3)c(=O)n2CC(=O)NCCc2cnc(N)[nH]2)c1
boundType: =
testValue: 6.2

====

Data export: IC50 values recorded with Prothrombin (Homo sapiens).

compound: Nc1cccc(-c2c(Cl)nc(NC3CCC3)c(=O)n2CC(=O)NCc2ccc3c(N)nccc3c2)c1
IC50: > 30 µM
--
compound: Nc1cccc(-c2c(Cl)nc(NC3CCC3)c(=O)n2CC(=O)NCc2ccccc2)c1
IC50: 10.6 µM
--
compound: N=C(N)c1ccc(S(=O)(=O)NCCn2c(-c3cccc(N)c3)c(Cl)nc(NC3CCC3)c2=O)cc1
IC50: > 30 µM
--
compound: N=C(N)c1c(O)c(F)c(CNC(=O)Cn2c(-c3cccc(N)c3)c(Cl)nc(NC3CCC3)c2=O)c(F)c1F
IC50: > 100 µM
--
compound: NC1=NCCSc2cc(CNC(=O)Cn3c(-c4cccc(N)c4)c(Cl)nc(NC4CCC4)c3=O)ccc21
IC50: > 30 µM
--
compound: N=C(N)c1c(F)c(F)c(CNC(=O)Cn2c(-c3cccc(N)c3)c(Cl)nc(NC3CCC3)c2=O)c(F)c1F
IC50: > 100 µM
--
compound: N=C(N)c1ccc(CNC(=O)Cn2c(-c3cccc(N)c3)c(Cl)nc(NC3CCC3)c2=O)cc1O
IC50: > 100 µM

====

Overview of recorded IC50 for various compounds
# studySystem: Coagulation factor VII (Homo sapiens, UniProt P08709)
# Sequence (P08709 whole entry): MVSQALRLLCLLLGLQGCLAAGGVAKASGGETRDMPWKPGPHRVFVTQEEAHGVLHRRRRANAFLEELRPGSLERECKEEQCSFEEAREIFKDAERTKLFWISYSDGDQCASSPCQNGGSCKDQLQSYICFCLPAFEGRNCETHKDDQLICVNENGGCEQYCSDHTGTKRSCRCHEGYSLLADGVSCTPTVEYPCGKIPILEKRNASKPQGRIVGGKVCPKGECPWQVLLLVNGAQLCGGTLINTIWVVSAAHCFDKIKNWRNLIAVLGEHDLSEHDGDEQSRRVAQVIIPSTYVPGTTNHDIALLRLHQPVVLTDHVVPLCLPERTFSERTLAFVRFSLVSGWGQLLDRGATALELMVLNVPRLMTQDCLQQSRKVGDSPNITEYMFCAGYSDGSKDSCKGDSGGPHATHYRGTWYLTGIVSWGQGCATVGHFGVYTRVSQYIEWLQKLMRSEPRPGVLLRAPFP

compound: N=C(N)c1c(F)c(F)c(CNC(=O)Cn2c(-c3cccc(N)c3)c(Cl)nc(NC3CCC3)c2=O)c(F)c1F
boundType: =
IC50 / nM: 5480

compound: N=C(N)c1ccc(CNC(=O)Cn2c(-c3cccc(N)c3)c(Cl)nc(NC3CCC3)c2=O)c(F)c1
boundType: =
IC50 / nM: 40

compound: Nc1cccc(-c2c(Cl)nc(NC3CCC3)c(=O)n2CC(=O)NCc2ccccc2)c1
boundType: =
IC50 / nM: 20

compound: Nc1cccc(-c2c(Cl)nc(NC3CCC3)c(=O)n2CC(=O)NCCc2cnc(N)[nH]2)c1
boundType: >
IC50 / nM: 30000

====

pIC50: −log10 of the molar value.
For reference, pIC50 measured on Coagulation factor X (Homo sapiens, UniProt P00742):

compound: Nc1cccc(-c2c(Cl)nc(NC3CCC3)c(=O)n2CC(=O)NCc2ccccc2)c1
studySystem: Coagulation factor X (Homo sapiens, UniProt P00742)
Sequence (P00742 41-179 limits assumed): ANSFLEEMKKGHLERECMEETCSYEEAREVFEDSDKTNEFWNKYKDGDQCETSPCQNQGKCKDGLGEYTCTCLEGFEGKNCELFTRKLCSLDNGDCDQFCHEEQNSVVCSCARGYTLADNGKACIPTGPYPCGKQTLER
Sequence (P00742 235-488 limits assumed): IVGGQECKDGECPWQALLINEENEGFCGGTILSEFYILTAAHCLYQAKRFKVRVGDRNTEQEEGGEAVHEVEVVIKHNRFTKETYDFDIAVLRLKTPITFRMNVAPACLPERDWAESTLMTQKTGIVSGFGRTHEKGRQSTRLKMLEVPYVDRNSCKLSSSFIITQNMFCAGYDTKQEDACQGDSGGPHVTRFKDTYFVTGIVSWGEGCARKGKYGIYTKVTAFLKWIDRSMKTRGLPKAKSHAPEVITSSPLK
pIC50: 7.40

compound: N=C(N)c1ccc(C(=O)NCCn2c(-c3cccc(N)c3)c(Cl)nc(NC3CCC3)c2=O)cc1
studySystem: Coagulation factor X (Homo sapiens, UniProt P00742)
pIC50: < 4.52

compound: Nc1cccc(-c2c(Cl)nc(NC3CCC3)c(=O)n2CC(=O)NCc2ccc3c(N)nsc3c2)c1
studySystem: Coagulation factor X (Homo sapiens, UniProt P00742)
pIC50: < 4.52

compound: N=C(N)c1ccc(CNC(=O)Cn2c(-c3cccc(N)c3)c(Cl)nc(NC3CCC3)c2=O)c(C(F)(F)F)c1
studySystem: Coagulation factor X (Homo sapiens, UniProt P00742)
pIC50: < 4.52

compound: Nc1cccc(-c2c(Cl)nc(NC3CCC3)c(=O)n2CC(=O)NCCc2cnc(N)[nH]2)c1
studySystem: Coagulation factor X (Homo sapiens, UniProt P00742)
pIC50: < 4.52

compound: N=C(N)c1ccc(CNC(=O)Cn2c(-c3cccc(N)c3)c(Cl)nc(NC3CCC3)c2=O)cc1O
studySystem: Coagulation factor X (Homo sapiens, UniProt P00742)
pIC50: < 4.00

Cited source: ChEMBL document CHEMBL1145416
